MEASURED_TARGET: T1, monomeric SARS-CoV-2 receptor binding domain (RBD-H6) (SARS-CoV-2, UniProt P0DTC2 319-541)
T1 construct: Made in HEK293-6E cells; also called RBD Spike; monomeric RBD
RUN_DESCRIPTION: ELISA screen
ENDPOINT_LABEL: Mean normalized OD

For orientation, consider the following solved cases.
Return reported Mean normalized OD; argument: Sell CRD-mouse IgG2a-Fc fusion protein (Fc fusion) WTYHYSEKPMNWENARKFCKQNYTDLVAIQNKREIEYLENTLPKSPYYYWIGIRKIGKMWTWVGTNKTLTKEAENWGAGEPNNKKSKEDCVEIYIKRERDSGKWNDDACHKRKAALCGGGSGGGSGGGS
-0.041 OD

Query (binder): Colec12 CRD-mouse IgG2a-Fc fusion protein (Fc fusion) FTDKCYYFSLEKEIFEDAKLFCEDKSSHLVFINSREEQQWIKKHTVGRESHWIGLTDSEQESEWKWLDGSPVDYKNWKAGQPDNWGSGHGPGEDCAGLIYAGQWNDFQCDEINNFICEGGGSGGGSGGGS ; field requested: Mean normalized OD
0.027 OD

Find the recorded Mean normalized OD belonging to Ly75_7 CRD-mouse IgG2a-Fc fusion protein (Fc fusion) YLNNLYKIISKPLTWHGALKECMKEKMRLVSITDPYQQAFLAVQATLRNSSFWIGLSSQDDELNFGWSDGKRLQFSNWAGSNEQLDDCVILDTDGFWKTADCDDNQPGAICYYGGGSGGGSGGGS and report it.
0.003 OD

Looking for the measured Mean normalized OD of Frem1 CRD-mouse IgG2a-Fc fusion protein (Fc fusion) HSGYCHILVTRQKGTWTTATRACREQHQGDLVTVLSRRHMQWLWAMSGRKPFWIGLKNQPRTGHWEWIGGEPVAFTNWRRGAPLHPKPGKNCALVQKRGQWQTKNCSKGKAHNFVGGGSGGGSGGGS , can you help?
0.013 OD

Parameters: items (list). Returns: Mean normalized OD for each item.
1. Mrc2_6 CRD-mouse IgG2a-Fc fusion protein (Fc fusion) FLNKCFRIQGQDPQDRVKWSEAQFSCEQQEAQLVTIANPLEQAFITASLPNVTFDLWIGLHASQRDFQWIEQEPLLYTNWAPGEPSGPSPAPSGTKPTSCAVILHSPSAHFTGRWDDRSCTEETHGFICGGGSGGGSGGGS
2. Klrg1 CRD-mouse IgG2a-Fc fusion protein (Fc fusion) NGSHCYYFSMEKKDWNSSLKFCADKGSHLLTFPDNQGVKLFGEYLGQDFYWIGLRNIDGWRWEGGPALSLRILTNSLIQRCGAIHRNGLQASSCEVALQWICKGGGSGGGSGGGS
3. Klrb1a CRD-mouse IgG2a-Fc fusion protein (Fc fusion) ECPQDWLSHRDKCFHVSHVSNTWEEGLVDCDGKGATLMLIQDQEELRFLLDSIKEKYNSFWIGLRYTLPDMNWKWINGSTLNSDVLKITDDTENDSCAAISGDKVTFESCNSDNRWICQKGGGSGGGSGGGS
4. Mrc2_3 CRD-mouse IgG2a-Fc fusion protein (Fc fusion) HSPSCYWLGEDQVIYSDARRLCTDHGSQLVTITNRFEQAFVSSLIYNWEGEYFWTALQDLNSTGSFRWLSGDEVIYTHWNRDQPGYRRGGCVALATGSAMGLWEVKNCTSFRARYICGGGSGGGSGGGS

1: 0.006 OD; 2: 0.003 OD; 3: 0.002 OD; 4: 0.003 OD
